ASSAY_DETAILS: Functional Dkk1-LRP5-TCF-Luciferase Assay in U2OS Cells (table columns: A=MAX FOLD Induction/DMSO CONTROL; B=fold induction @ 2.0 uM; C=fold induction @ 20.0 uM)
Assay type: cell-based, Human
CONDITION_INFO: Homo sapiens, U2OS; 2.0 uM compound
QUANTITY: fold induction at 2 µM
Reply briefly: the number, and no unit.

CCc1nc2cc(-c3ccc4ccccc4c3)cnc2n1C1CCNCC1    1.27

Just so you know, measured fold induction at 2 µM for c1ccc2cc(-c3ccnc4c3nc(-c3cnc5ccccc5c3)n4C3CCNCC3)ccc2c1 came out at 1.44

Just so you know, measured fold induction at 2 µM for c1ccc2cc(-c3cnc4c(c3)nc(-c3cc5ccccc5o3)n4C3CCNCC3)ccc2c1 came out at 1

Just so you know, measured fold induction at 2 µM for O=C(N1CCC(n2cnc3c(-c4ccc5ccccc5c4)ccnc32)CC1)C(F)(F)F came out at 1.58

Just so you know, measured fold induction at 2 µM for O=[N+]([O-])c1ccc(-c2nc3c(-c4ccc5ccccc5c4)ccnc3n2C2CCNCC2)cc1 came out at 1.42

Just so you know, measured fold induction at 2 µM for c1ccc2cc(-c3cnc4c(c3)nc(C3CCCCC3)n4C3CCNCC3)ccc2c1 came out at 1.24

====

Below, each of the compounds is paired with its reported fold induction at 2 µM value.
ASSAY_DETAILS: Functional Dkk1-LRP5-TCF-Luciferase Assay in U2OS Cells (table columns: A=MAX FOLD Induction/DMSO CONTROL; B=fold induction @ 2.0 uM; C=fold induction @ 20.0 uM)
Assay type: cell-based, Human
CONDITION_INFO: Homo sapiens, U2OS; 2.0 uM compound
Reply briefly: the number, and no unit.

Check out these entries, answers already filled in.
c1ccc2cc(-c3ccnc4c3nc(C3CCCC3)n4C3CCNCC3)ccc2c1    1.46
FC(F)(F)c1cccc(-c2nc3c(-c4ccc5ccccc5c4)ccnc3n2C2CCNCC2)c1Cl    1.21
Cc1ccc(-c2nc3c(-c4ccc5ccccc5c4)ccnc3n2C2CCNCC2)o1    1.17

Just so you know, measured fold induction at 2 µM for Cn1cccc1-c1nc2c(-c3ccc4ccccc4c3)ccnc2n1C1CCNCC1 came out at 1.52

Just so you know, measured fold induction at 2 µM for Cn1c(-c2nc3cc(-c4ccc5ccccc5c4)cnc3n2C2CCNCC2)cc2ccccc21 came out at 1.05

====

ASSAY_DETAILS: Functional Dkk1-LRP5-TCF-Luciferase Assay in U2OS Cells (table columns: A=MAX FOLD Induction/DMSO CONTROL; B=fold induction @ 2.0 uM; C=fold induction @ 20.0 uM)
Assay type: cell-based, Human
CONDITION_INFO: Homo sapiens, U2OS; 2.0 uM compound
Procedure: Biological Evaluation—Functional Dkk1-LRP5-TCF-Luciferase Assay in U2OS Cells U2OS Human Bone derived cells (Osteosarcoma) are grown in McCoy's 5A Medium (Modified), with L-glutamine (GIBCO Cat No. 16600-082)+1% Pen-Strep+5% FBS) plated at 1×10^7 cells/T175 cm flask. […] After a minimum of 4 hr of transfection at 37° C., the plasmid-transfected cells are trypsinized, counted, and suspended in freezing medium (95% FBS+5% DMSO). […]
Below, each of the compounds is paired with its reported fold induction at 2 µM value.
Reply briefly: the number, and no unit.

Check out these entries, answers already filled in.
O=[N+]([O-])c1ccc(O)cc1-c1nc2c(-c3ccc4ccccc4c3)ccnc2n1C1CCNCC1    1.4
c1cncc(-c2nc3cc(-c4ccc5ccccc5c4)cnc3n2C2CCNCC2)c1    1.75

Just so you know, measured fold induction at 2 µM for Cc1cn(-c2ccccc2)c(Cl)c1-c1nc2c(-c3ccc4ccccc4c3)ccnc2n1C1CCNCC1 came out at 1.48

Just so you know, measured fold induction at 2 µM for c1ccc(-c2nc3cc(-c4ccc5ccccc5c4)cnc3n2C2CCNCC2)cc1 came out at 1.6

Just so you know, measured fold induction at 2 µM for O=[N+]([O-])c1ccccc1-c1nc2cc(-c3ccc4ccccc4c3)cnc2n1C1CCNCC1 came out at 1.13

Just so you know, measured fold induction at 2 µM for N#Cc1ccc(-c2nc3c(-c4ccc5ccccc5c4)ccnc3n2C2CCNCC2)cc1 came out at 1.58

Just so you know, measured fold induction at 2 µM for c1coc(-c2nc3c(-c4ccc5ccccc5c4)ccnc3n2C2CCNCC2)c1 came out at 1.82

Just so you know, measured fold induction at 2 µM for Cc1ccc(-c2nc3c(-c4ccc5ccccc5c4)ccnc3n2C2CCNCC2)c(C)c1 came out at 1.3

====

ASSAY_DETAILS: Functional Dkk1-LRP5-TCF-Luciferase Assay in U2OS Cells (table columns: A=MAX FOLD Induction/DMSO CONTROL; B=fold induction @ 2.0 uM; C=fold induction @ 20.0 uM)
Assay type: cell-based, Human
CONDITION_INFO: Homo sapiens, U2OS; 20.0 uM compound
QUANTITY: fold induction at 20 µM
Reply briefly: the number, and no unit.

Cn1c(=O)n(C2CCN(S(C)(=O)=O)CC2)c2nccc(-c3ccc4ccccc4c3)c21    0.97
CCNC(=O)N1CCC(n2cnc3c(-c4ccc5ccccc5c4)ccnc32)CC1    1.29
c1ccc2cc(-c3ccnc4c3nc(-c3cc5ccccc5o3)n4C3CCNCC3)ccc2c1    0.01
c1c[nH]c(-c2nc3cc(-c4ccc5ccccc5c4)cnc3n2C2CCNCC2)c1    1.99
c1csc(-c2nc3c(-c4ccc5ccccc5c4)ccnc3n2C2CCNCC2)c1    0.04

Just so you know, measured fold induction at 20 µM for c1ccc2cc(-c3cnc4c(c3)nc(-c3ccncc3)n4C3CCNCC3)ccc2c1 came out at 0.005

Just so you know, measured fold induction at 20 µM for COc1ccccc1-c1nc2cc(-c3ccc4ccccc4c3)cnc2n1C1CCNCC1 came out at 0.01

Just so you know, measured fold induction at 20 µM for O=c1[nH]cc(-c2nc3c(-c4ccc5ccccc5c4)ccnc3n2C2CCNCC2)c(=O)[nH]1 came out at 1.91

Just so you know, measured fold induction at 20 µM for c1ccc2cc(-c3ccnc4c3ncn4[C@H]3CCCNC3)ccc2c1 came out at 0.01

Just so you know, measured fold induction at 20 µM for CC(=O)N1CCC(n2c(=O)n(C)c3c(-c4ccc5ccccc5c4)ccnc32)CC1 came out at 0.51

====

ASSAY_DETAILS: Functional Dkk1-LRP5-TCF-Luciferase Assay in U2OS Cells (table columns: A=MAX FOLD Induction/DMSO CONTROL; B=fold induction @ 2.0 uM; C=fold induction @ 20.0 uM)
Assay type: cell-based, Human
CONDITION_INFO: Homo sapiens, U2OS; 2.0 uM compound
Below, each of the compounds is paired with its reported fold induction at 2 µM value.

Just so you know, measured fold induction at 2 µM for c1ccc2cc(-c3ccnc4c3nc(-c3ccc5c(c3)OCO5)n4C3CCNCC3)ccc2c1 came out at 1.36

====

Below, each of the compounds is paired with its reported fold induction at 2 µM value.
ASSAY_DETAILS: Functional Dkk1-LRP5-TCF-Luciferase Assay in U2OS Cells (table columns: A=MAX FOLD Induction/DMSO CONTROL; B=fold induction @ 2.0 uM; C=fold induction @ 20.0 uM)
Type: cell-based, Human
CONDITION_INFO: Homo sapiens, U2OS; 2.0 uM compound
Reply briefly: the number, and no unit.

Check out these entries, answers already filled in.
CCCCc1nc2cc(-c3ccc4ccccc4c3)cnc2n1C1CCNCC1    1.21
CCCc1nc2cc(-c3ccc4ccccc4c3)cnc2n1C1CCNCC1    1.38
Cc1nc[nH]c1-c1nc2c(-c3ccc4ccccc4c3)ccnc2n1C1CCNCC1    1.31
Cc1nc2c(-c3ccc4ccccc4c3)ccnc2n1[C@H]1CCNC1    1.57
O=C(N1CCOCC1)N1CCC(n2c(=O)[nH]c3c(-c4ccc5ccccc5c4)ccnc32)CC1    1.33

Just so you know, measured fold induction at 2 µM for c1ccc2cc(-c3ccnc4c3nc(-c3csc5ccccc35)n4C3CCNCC3)ccc2c1 came out at 1.28

Just so you know, measured fold induction at 2 µM for Fc1ccccc1-c1nc2c(-c3ccc4ccccc4c3)ccnc2n1C1CCNCC1 came out at 1.29

Just so you know, measured fold induction at 2 µM for c1ccc2cc(-c3cnc4c(c3)nc(-c3ccc5ccccc5c3)n4C3CCNCC3)ccc2c1 came out at 1.06

Just so you know, measured fold induction at 2 µM for Cc1cccc(-c2nc3cc(-c4ccc5ccccc5c4)cnc3n2C2CCNCC2)c1 came out at 1.33

Just so you know, measured fold induction at 2 µM for CC(C)c1ccc(-c2nc3cc(-c4ccc5ccccc5c4)cnc3n2C2CCNCC2)cc1 came out at 1.14

Just so you know, measured fold induction at 2 µM for c1ccc2cc(-c3ccnc4c3ncn4[C@@H]3CCNC3)ccc2c1 came out at 2.06

Just so you know, measured fold induction at 2 µM for c1ccc2cc(-c3ccnc4c3nc(-c3ccc5occc5c3)n4C3CCNCC3)ccc2c1 came out at 0.9

Just so you know, measured fold induction at 2 µM for c1ccc(Oc2cccc(-c3nc4c(-c5ccc6ccccc6c5)ccnc4n3C3CCNCC3)c2)cc1 came out at 1.4

Just so you know, measured fold induction at 2 µM for CC(=O)N1CCC(n2c(=O)n(C)c3c(-c4ccc5ccccc5c4)ccnc32)CC1 came out at 1.09

Just so you know, measured fold induction at 2 µM for O=C(N1CCOCC1)N1CCC(n2cnc3c(-c4ccc5ccccc5c4)ccnc32)CC1 came out at 1.08

Just so you know, measured fold induction at 2 µM for Cn1cc(-c2nc3c(-c4ccc5ccccc5c4)ccnc3n2C2CCNCC2)c2ccccc21 came out at 1.23

Just so you know, measured fold induction at 2 µM for FC(F)(F)Oc1ccccc1-c1nc2c(-c3ccc4ccccc4c3)ccnc2n1C1CCNCC1 came out at 1.88

Just so you know, measured fold induction at 2 µM for Cc1ccc(-c2nc3cc(-c4ccc5ccccc5c4)cnc3n2C2CCNCC2)cc1 came out at 1

Just so you know, measured fold induction at 2 µM for c1ccc2cc(-c3cnc4c(c3)nc(-c3cc5ccccc5s3)n4C3CCNCC3)ccc2c1 came out at 0.92

Just so you know, measured fold induction at 2 µM for Brc1ccc(-c2nc3c(-c4ccc5ccccc5c4)ccnc3n2C2CCNCC2)cc1 came out at 1.23

These measurements were taken from patent US20090069319A1.
